# SYSTEM_UNDER_TEST: T1, human matriptase-2 ECD protein his tag (human, UniProt Q8IU80 78-811)
# T1 sequence: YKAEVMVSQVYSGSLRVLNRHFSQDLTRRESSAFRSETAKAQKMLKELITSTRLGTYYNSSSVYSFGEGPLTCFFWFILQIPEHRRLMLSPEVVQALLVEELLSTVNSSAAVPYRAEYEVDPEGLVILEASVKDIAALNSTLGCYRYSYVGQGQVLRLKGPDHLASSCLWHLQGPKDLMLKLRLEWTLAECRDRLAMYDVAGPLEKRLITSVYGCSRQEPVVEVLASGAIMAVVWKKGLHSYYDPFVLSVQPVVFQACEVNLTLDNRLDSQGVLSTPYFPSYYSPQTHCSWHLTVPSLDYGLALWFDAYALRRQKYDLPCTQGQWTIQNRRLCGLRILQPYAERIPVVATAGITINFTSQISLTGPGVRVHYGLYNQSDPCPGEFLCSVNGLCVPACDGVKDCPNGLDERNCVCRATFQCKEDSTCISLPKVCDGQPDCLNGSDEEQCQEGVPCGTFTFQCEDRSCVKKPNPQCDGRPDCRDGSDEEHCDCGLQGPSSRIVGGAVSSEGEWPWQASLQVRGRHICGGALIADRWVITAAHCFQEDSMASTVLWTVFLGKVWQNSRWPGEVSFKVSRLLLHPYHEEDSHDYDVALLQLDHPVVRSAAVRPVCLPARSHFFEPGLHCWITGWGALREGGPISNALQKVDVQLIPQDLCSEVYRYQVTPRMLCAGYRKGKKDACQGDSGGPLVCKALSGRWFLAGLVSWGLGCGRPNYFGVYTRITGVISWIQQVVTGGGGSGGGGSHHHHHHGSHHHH
# ASSAY_PROTOCOL: cell-based or functional assay
METRIC_NAME: Inhibition enzymatic activity human MTP2 protein (IC50) (nM)
Quick reminder: number only, in nM, skip the unit.

For orientation, consider the following solved cases.
[
  {
    "BINDER": "NORI-013 (antibody, human IgG4 S228P, lambda, V domains shown, human IgG4PE, lambda) VH: EVQLVESGGGLIQAGRSLRLSCAASGFTFDEHVIYWVRQIPGKGLEWISSISWKSDIIAYADSVKGRFTISRDNAKNALYLQMNSLRAEDTALYYCAREKDGDFYYYYFAMDVWGQGTTVTVSS VL: QSALTQPPSASGSPGQSVTLSCTGTSSDVGYYNYVSWYLQHPGKAPKLMIYEVSKRPSGVPDRFSGSKSANTASLTVSGLQAEDEADYYCSSYAGSNKVVFGGGTKVTVLG",
    "RECORDED_MEASUREMENT": 5.63
  },
  {
    "BINDER": "NORI-008 (antibody, human IgG4 S228P, kappa, V domains shown, human IgG4PE, kappa, in the in vitro assays; a mouse IgG1 format was used in one in vivo study only; also called NORI-008 hulgG4PE; NORI-008 IgG) VH: QVQLQESGPGLVKPSETLSLTCSVSGGSVSSGRYYWTWIRQPPGKGLEWIGYISNSGNTNYNPSLKSRVTISLDTSKKQFSLSLSAVTAADTAVYYCARGFIYDYWFDPWGQGSLVTVSS VL: DSQMTQSPSSLSASVGDRVTITCQASQDIDNYLNWYQQRPGKAPKLLIYDASKLETGVPSRFSGSGSGTDFTFTISSLQPEDFATYYCQQYGNLPITFGQGTRLDIKR",
    "RECORDED_MEASUREMENT": 8.28
  }
]

Can you look up the measured Inhibition enzymatic activity human MTP2 protein (IC50) of NORI-015 (antibody, human IgG4 S228P, lambda, V domains shown) VH: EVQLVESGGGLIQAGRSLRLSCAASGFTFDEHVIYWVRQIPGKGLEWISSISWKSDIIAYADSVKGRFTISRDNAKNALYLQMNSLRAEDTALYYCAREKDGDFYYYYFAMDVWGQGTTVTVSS VL: QSALTQPPSASGSPGQSVTISCTGTSSNVGYYNYVSWYQQHPGKAPKLMIYEVNKRPSGVPDRFSGSKSANTASLTVSGLQADDEADYYCSSYAGSNKVVFGGGTKLTVLG for me?
5.51
